Here, each record is paired with measured pIC50 data.
assay_procedure: Cytotoxicity, ATP levels, normal human keratinocytes (NHK)
Format: cell-based
condition_info: human, normal human keratinocytes (NHK); NHK cells, ATP levels; read-out: Cytotox. IC50
pIC50: −log10 of the molar value.

| compound | pIC50 |
| --- | --- |
| CNC(C)C1CCC(N)C(OC2C(N)CC(N)C(OC3OCC(C)(O)C(NC)C3O)C2O)O1 (stereo not drawn) [Gentamicin, reference compound] | 2.80 |
| NC(=O)Cn1ccc2ccc(-c3cnc(N)c(C(=O)NC4C5CC6CC4CC(O)(C6)C5)n3)cc21 (stereo not drawn) | 4.72 |
| C#Cc1nc(-c2ccncc2)c(-c2ccco2)nc1N | 4.51 |

###

assay_procedure: Cytotoxicity, ATP levels (ATPlite), RDEB_L1 cells
Type: cell-based
condition_info: human, RDEB L1 cells (RDEB patient-derived cell line)
pIC50: −log10 of the molar value.

| structure_as_smiles | pIC50 |
| --- | --- |
| C#Cc1cc(-c2ccncc2)c(-c2cccc(F)c2)nc1N | < 4.00 |

###

Tested on: total C7 in HEK293^R578X cells
assay_procedure: AlphaLISA quantification of total C7 in recombinant HEK293^R578X cells
Format: cell-based, human
condition_info: Homo sapiens, total C7 AlphaLISA, 48 h, relative EC50, mean ± SD, read-out: Increase in C7 levels EC50
Here, each record is paired with measured EC50 data.

| molecule | EC50 |
| --- | --- |
| CNC(C)C1CCC(N)C(OC2C(N)CC(N)C(OC3OCC(C)(O)C(NC)C3O)C2O)O1 (stereo not drawn) [Gentamicin, reference compound] | 4500 µM |
| C#Cc1cc(-c2ccncc2)c(-c2cccc(F)c2)nc1N | 60 µM |
| CC1(C)c2c[nH]c3cccc(c23)S[C@H]1C(=O)O | 4.6 µM |

###

target_under_test: JAK1 (Homo sapiens)
Sequence (P23458 whole entry, species assumed): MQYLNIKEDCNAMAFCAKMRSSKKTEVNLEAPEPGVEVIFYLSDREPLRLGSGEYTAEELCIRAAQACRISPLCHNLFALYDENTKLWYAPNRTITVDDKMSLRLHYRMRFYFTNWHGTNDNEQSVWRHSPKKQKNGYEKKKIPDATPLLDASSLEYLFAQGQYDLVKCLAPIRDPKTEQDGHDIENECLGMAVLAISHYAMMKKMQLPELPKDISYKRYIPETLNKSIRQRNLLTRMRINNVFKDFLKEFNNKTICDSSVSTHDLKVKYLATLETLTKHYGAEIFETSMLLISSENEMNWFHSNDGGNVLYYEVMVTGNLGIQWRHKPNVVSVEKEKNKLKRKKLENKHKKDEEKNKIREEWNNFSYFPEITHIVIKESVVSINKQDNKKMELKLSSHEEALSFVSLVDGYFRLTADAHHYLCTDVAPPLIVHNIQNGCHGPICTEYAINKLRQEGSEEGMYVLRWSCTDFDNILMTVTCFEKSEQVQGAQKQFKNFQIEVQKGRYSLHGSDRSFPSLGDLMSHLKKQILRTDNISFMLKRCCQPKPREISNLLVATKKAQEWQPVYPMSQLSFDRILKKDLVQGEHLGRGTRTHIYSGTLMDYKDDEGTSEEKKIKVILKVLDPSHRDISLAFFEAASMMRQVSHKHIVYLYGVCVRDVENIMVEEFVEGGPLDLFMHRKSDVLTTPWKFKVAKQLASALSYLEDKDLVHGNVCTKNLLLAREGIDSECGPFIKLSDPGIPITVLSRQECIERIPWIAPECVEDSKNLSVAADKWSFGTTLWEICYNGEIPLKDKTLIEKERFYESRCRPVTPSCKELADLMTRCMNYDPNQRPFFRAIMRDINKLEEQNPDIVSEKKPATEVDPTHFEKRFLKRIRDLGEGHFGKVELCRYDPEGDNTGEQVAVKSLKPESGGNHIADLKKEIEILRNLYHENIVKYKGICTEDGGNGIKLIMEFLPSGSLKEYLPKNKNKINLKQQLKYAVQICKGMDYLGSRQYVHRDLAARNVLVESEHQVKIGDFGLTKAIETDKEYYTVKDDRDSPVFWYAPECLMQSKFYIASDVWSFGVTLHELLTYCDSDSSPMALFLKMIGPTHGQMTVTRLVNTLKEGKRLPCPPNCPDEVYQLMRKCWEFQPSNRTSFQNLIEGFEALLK
pIC50: −log10 of the molar value.

| molecule | pIC50 |
| --- | --- |
| NC(=O)Cn1ccc2ccc(-c3cnc(N)c(C(=O)NC4C5CC6CC4CC(O)(C6)C5)n3)cc21 (stereo not shown) | 6.36 |

###

target_under_test: Syk (Homo sapiens)
pIC50: −log10 of the molar value.

| molecule | pIC50 |
| --- | --- |
| NC(=O)Cn1ccc2ccc(-c3cnc(N)c(C(=O)NC4C5CC6CC4CC(O)(C6)C5)n3)cc21 (stereo not shown) [Compound 1] | 5.76 |
